Biological target: S. cerevisiae transketolase (Saccharomyces cerevisiae, UniProt P23254)
Sequence (P23254 1-680): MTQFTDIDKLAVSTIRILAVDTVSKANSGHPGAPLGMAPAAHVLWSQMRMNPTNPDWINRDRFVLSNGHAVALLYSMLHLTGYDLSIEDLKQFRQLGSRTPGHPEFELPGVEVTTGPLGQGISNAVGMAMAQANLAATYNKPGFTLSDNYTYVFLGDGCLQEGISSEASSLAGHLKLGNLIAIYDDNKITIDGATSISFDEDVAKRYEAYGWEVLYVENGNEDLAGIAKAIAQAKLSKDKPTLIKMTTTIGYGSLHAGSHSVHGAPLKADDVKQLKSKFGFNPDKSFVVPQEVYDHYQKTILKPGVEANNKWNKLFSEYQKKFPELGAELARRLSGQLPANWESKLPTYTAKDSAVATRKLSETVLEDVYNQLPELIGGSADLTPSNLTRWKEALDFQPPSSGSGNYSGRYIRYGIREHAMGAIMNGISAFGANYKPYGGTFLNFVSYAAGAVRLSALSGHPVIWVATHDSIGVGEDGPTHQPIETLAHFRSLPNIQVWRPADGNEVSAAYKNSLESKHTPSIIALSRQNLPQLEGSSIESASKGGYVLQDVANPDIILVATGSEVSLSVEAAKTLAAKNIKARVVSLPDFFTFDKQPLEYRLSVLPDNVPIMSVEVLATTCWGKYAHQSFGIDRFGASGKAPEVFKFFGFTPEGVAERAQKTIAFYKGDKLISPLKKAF
pKi: −log10 of the molar value.
reportedProperty: pKi

>>> observedmeasurement("CCC(=O)P(=O)(O)OC [Compound 4]")
"< 3.00"
>>> observedmeasurement("COP(=O)([O-])C(C)=O.[Li+] [Compound 1, Methylacetylphosphonate, reference compound]")
"< 3.00"
>>> observedmeasurement("CCOP(=O)([O-])C(C)=O.[Li+] [Compound 2, Ethylacetylphosphonate]")
"< 3.00"
>>> observedmeasurement("CCCC(=O)P(=O)(O)OC [Compound 5]")
"< 3.00"
>>> observedmeasurement("CCCCC(=O)P(=O)(O)OC [Compound 6]")
"< 3.00"
>>> observedmeasurement("CCCCOP(=O)([O-])C(C)=O.[Li+] [Compound 3, butylacetylphosphonate]")
"< 3.00"
